Recorded measurements of self-cleavage, one per entry
B1: Hairpin Ribozyme (parent)
chain: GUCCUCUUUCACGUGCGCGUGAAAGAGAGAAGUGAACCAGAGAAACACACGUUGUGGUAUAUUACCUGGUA

Variants of: B1
Assay: self-cleavage, relative activity (ratio to wild type); higher = more cleavage; co-transcriptional
Quick one: just the number, no unit, thanks!

Consider the following illustrative entries.
A43G C48U; 0.123
U7A U8A; 1.14
A24U U52C; 0.723
U7C G54A; 0.525
U7G C37A; 0.335
A24C C37G; 0.242
U20G A24C; 0.789
U52C U58G; 0.606
C3U A61U; 0.227
A49C U67G; 0.109

Exam item: # query: self-cleavage of entry A22G U33C
Marked response: 0.192

Exam item: # query: self-cleavage of entry A35U A43G
Marked response: 0.0794

Exam item: # query: self-cleavage of entry U70A
Marked response: 0.926

Exam item: # query: self-cleavage of entry C6A C18U
Marked response: 0.708

Exam item: # query: self-cleavage of entry U53G G54C
Marked response: 0.551
